B1: Osa-1-4 twister ribozyme (parent)
chain: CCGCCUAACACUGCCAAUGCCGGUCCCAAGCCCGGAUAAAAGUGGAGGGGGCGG

# Variants of: B1
# EXPERIMENTAL_DETAILS: self-cleavage, relative activity (ratio to wild type); higher = more cleavage; co-transcriptional
A collection of variants and their measured self-cleavage
# answer = number (no unit)

Any idea what self-cleavage was measured for `CCGCCUAACACUCCCAAUGCCGGUCCCAAGCCCGGAUAAAAGUGAAGGGGGCGG` ? 0.02

These entries and their values trace back to the RNAGym collection of RNA variant scans (doi:10.1002/anie.201605470).
